Hey, just so you know, these numbers are from ChEMBL document CHEMBL4325930.

target.of.assay: UniProt:P00374
Sequence (P00374 whole entry): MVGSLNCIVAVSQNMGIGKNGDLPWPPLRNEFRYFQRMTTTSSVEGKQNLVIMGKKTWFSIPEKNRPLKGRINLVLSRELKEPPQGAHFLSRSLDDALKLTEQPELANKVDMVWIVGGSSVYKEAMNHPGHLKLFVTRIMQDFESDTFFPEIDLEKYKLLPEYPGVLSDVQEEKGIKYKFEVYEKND
readout.type: Ki

Sure, the documented Ki for `CCc1nc(N)nc(N)c1-c1cccc(Cl)c1` is 1.6 nM

====

test.method.notes: Solubility of the compound
Type: physicochemical
readout.type: solubility

Noted for `CCc1nc(N)nc(N)c1OCCCOc1ccc(-c2c(N)nc(N)nc2CC)cc1` : its solubility reads 1 µM
